B1: CCND1 (parent)
chain: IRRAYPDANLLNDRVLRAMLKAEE

# Variants of: B1
# Assay method text: protein stability index of a GFP-peptide fusion (GPS, HEK-293T) (PSI 1-6); higher = more stable;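 also: lentivirally expressed fusions sorted by FACS into six bins by GFP to DsRed ratio, PSI derived from sequencing read proportions per bin multiplied by bin number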
# Study conditions: c terminus: a fixed tail appended
Property: protein stability index
Give only the figure.

Answered examples (4):
IRRAYPTANLLNDRVLRAMLKAEE [D7T] ... 2.23
NRRAYPDANLLNDRVLRAMLKAEE [I1N] ... 3.69
IRRAYVDANLLNDRVLRAMLKAEE [P6V] ... 3.38
IRRAYPDANLLNDRVLRAMPKAEE [L20P] ... 4.68

Give its protein stability index value. Item: IRRAYPDANLLNDRVLRAMLKALE [E23L]
3.39

// protein stability index lookup, key: IRRAYPDANLCNDRVLRAMLKAEE [L11C]
2.69
